Target: T1, His-tagged cynomolgus monkey TIGIT (Acro Biosystems #TIT-05223) (cynomolgus monkey, UniProt A0A7N9I9V4 89-209)
T1 construct: Bought protein; also called cyno TIGIT; cynomolgus TIGIT; not shown: His tag
T1 sequence (A0A7N9I9V4 entry or part of it): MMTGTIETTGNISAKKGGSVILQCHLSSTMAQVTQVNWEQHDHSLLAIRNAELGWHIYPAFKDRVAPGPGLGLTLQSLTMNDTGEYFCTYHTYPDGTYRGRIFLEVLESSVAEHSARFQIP
Assay: ELISA, coated His-TIGIT, 1 ug/ml
Attribute: Elisa OD450
quantityKind: Elisa OD450 (OD450)

1. 43586p1.2.G10 (scFv, V domains shown) VH: EVQLLESGGGLVQPGGSLRLSCAASGFTFDDYVMSWVRQAPGKELEWVSLINWNGDKTCYADSVKGRFTISRDNSKNTLYLQMNSLRAEDTAIYYCAKHWIVFQYGMDVWGQGTTVTVSS VL: QSVLTQPPSASGTPGQRVTISCSGSISNIETKYVSWYQQLPGTAPKLLIYNSDQRPSGVPDRFSGSKSGTSASLAISGLQSEDEADYYCVSWDASLKSWVFGGGTKLTVL	1.52
2. 43645p1.E3 (scFv, V domains shown) VH: EVQLLESGGGLVQPGGSLRLSCAASGFTFSSYAMSWVRQAPGKGLEWVSAIYFDGSIYDADSVKGRFTISRDNSKNTLYLQMNSLRDEDTAVYYCAKSHTVLQYGMDVWGQGTTVTVSS VL: QSVLTQPPSASGTPGQRVTISCSGVTSNIRNSYVSWYQQLPGTAPKLLIYGNDQRPSGVPDRFSGSKSGTSASLAISGLQSEDEADYYCGTWDNTLNAWVFGGGTKLTVL	1.53
3. 43586p2.D05 (scFv, V domains shown) VH: EVQLLESGGGLVQPGGSLRLSCAASGFTFDDYVMSWVRQAPGKGLEWVSLINWNGDKTYYADSVKGRFTISRDNSKNTLYLQMNSLRAEDTAVYYCARHWIVFQYGLDIWGQGTTVTVSS VL: QSVLTQPLSASGTPGQRVTISCSGVSSNIEIKYVSWYQQLPGTAPKLLIYNSHQRPSGVPDRFSGSKSGTSASLAISGLQSEDEADYYCTSWDDRLKSWVFGGGTKLTVL	1.73
4. 43586p1.1.G9 (scFv, V domains shown) VH: EVQLLESGGGLVQPGGSLRLSCAASGFTFTTYAMSWVRQAPGKGLEWVAGISYIGSDKYYADSVKGRLTISRDNSKNTLYLQMDSLRAEDTAVYYCAKHLTGGTTDYYYYGMDVWGQGTTVTVS VL: QSVLTQPPSASGTPGQRVTISCSGSTSNIGTSRYVHWYQHLPGTAPKLLIYLDSQRPSGVPDRFSASKSGTSASLAISGLQSEDEADYYCSAWDDSLSAWVFGGGTKLTVL	1.6
5. 43586p2.G02 (scFv, V domains shown) VH: EVQLLESGGGLVQPGGSLRLSCAASGFTFSSYWMNWVRQAPGKGLEWVSGIYSGGTTYYADSVKGRFTISRDNSKNTLYLQMNSLRAEDTAVYYCTRENWKENNAMDVWGQGTTVTVSS VL: QSVLTQPPSASGTPGQRVTISCSGVTSNIASYHVYWYQQLPGTAPKLLIYLNSQRPSGVPDRFSASKSGTSASLAISGLQSEDEADYYCATWDGSQNGWVFGGGTKLTVL	1.5
